Taken from patent US11524962B2.

Record form. Attribute: IC50. Fill in for each entry.
# study.target: PRMT5/MEP50 complex (Homo sapiens (Human), UniProt O14744)
# Sequence (O14744 whole entry): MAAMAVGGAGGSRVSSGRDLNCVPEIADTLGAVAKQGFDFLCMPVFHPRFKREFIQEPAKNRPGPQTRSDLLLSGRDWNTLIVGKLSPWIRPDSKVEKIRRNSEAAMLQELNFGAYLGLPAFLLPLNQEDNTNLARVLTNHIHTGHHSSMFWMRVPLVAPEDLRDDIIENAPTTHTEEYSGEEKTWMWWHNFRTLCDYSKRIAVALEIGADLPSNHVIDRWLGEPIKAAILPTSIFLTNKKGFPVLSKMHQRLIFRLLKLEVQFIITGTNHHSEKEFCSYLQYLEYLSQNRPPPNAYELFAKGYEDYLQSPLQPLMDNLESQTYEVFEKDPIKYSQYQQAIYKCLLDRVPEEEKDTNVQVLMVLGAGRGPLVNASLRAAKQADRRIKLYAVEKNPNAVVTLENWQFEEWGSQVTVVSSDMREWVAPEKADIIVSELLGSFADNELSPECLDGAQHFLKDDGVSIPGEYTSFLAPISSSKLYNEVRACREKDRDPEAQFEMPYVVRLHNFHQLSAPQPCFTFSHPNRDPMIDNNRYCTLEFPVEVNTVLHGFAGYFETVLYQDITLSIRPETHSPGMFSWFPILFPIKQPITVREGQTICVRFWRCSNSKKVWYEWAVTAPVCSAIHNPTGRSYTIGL
# Sequence (Q9BQA1 whole entry partner): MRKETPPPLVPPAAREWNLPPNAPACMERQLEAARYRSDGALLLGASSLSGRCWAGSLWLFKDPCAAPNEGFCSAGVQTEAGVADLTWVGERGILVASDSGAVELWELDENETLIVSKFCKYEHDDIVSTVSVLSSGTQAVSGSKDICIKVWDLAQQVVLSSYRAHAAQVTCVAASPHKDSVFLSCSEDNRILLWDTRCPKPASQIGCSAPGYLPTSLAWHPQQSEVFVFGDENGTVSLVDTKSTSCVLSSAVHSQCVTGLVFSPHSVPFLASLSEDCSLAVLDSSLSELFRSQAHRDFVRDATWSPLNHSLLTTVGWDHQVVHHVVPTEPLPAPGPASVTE
# test.description: Flash plate assay
# Type: biochemical
# run.parameters: read-out: Flash Plate IC50

Would you please look over these solved cases?
# smiles.structure, study.target, IC50
data = [
    ("Nc1ncnc2c1c(I)cn2[C@@H]1O[C@H]([C@H](O)c2ccc3c(c2)CC3)[C@@H](O)[C@H]1O", "PRMT5/MEP50 complex (Homo sapiens (Human), UniProt O14744)", "31 nM"),
    ("Cc1ncnc2c1ccn2[C@@H]1O[C@H]([C@H](O)c2nc3c(s2)CCC3)[C@@H](O)[C@H]1O", "PRMT5/MEP50 complex (Homo sapiens (Human), UniProt O14744)", "9.3 nM"),
    ("CN(C)C(=O)Nc1ncnc2c1ccn2[C@@H]1O[C@H]([C@H](O)c2ccc3c(c2)CC3)[C@@H](O)[C@H]1O", "PRMT5/MEP50 complex (Homo sapiens (Human), UniProt O14744)", "697 nM"),
    ("CCOCc1ncnc2c1ccn2[C@@H]1O[C@H]([C@H](O)c2ccc3c(c2)CC3)[C@@H](O)[C@H]1O", "PRMT5/MEP50 complex (Homo sapiens (Human), UniProt O14744)", "2520 nM"),
    ("Nc1ncnc2c1c(C(F)(F)F)cn2[C@@H]1O[C@H]([C@H](O)c2ccc3c(c2)CC3)[C@@H](O)[C@H]1O", "PRMT5/MEP50 complex (Homo sapiens (Human), UniProt O14744)", "221 nM"),
    ("Nc1ncnc2c1c(F)cn2[C@@H]1O[C@H]([C@H](O)c2ccc3c(c2)CC3)[C@@H](O)[C@H]1O", "PRMT5/MEP50 complex (Homo sapiens (Human), UniProt O14744)", "2.8 nM"),
]

Please supply IC50 for each of the following items, keeping them in order.
1. C=Cc1ncnc2c1ccn2[C@@H]1O[C@H]([C@H](O)c2ccc3c(c2)CC3)[C@@H](O)[C@H]1O
2. CNc1ncnc2c1ccn2[C@@H]1O[C@H]([C@H](O)c2ccc3c(c2)CC3)[C@@H](O)[C@H]1O

["2060 nM", "37.6 nM"]

###

# Test system: Symmetric Di-Methyl Arginine (sDMA) marks in Granta-519 cells
# test.description: sDMA Western blot / In Cell Western in Granta-519 cells
# Type: cell-based
# run.parameters: Homo sapiens, 72 h; Granta-519, 3 days; read-out: sDMA_Granta IC50
quantity.kind: pIC50
Answers are plain numbers, as −log10 of the molar value.

# molecule, study.target, quantity.kind, readout.value
measured = [
    ("Nc1ncnc2c1c(F)cn2[C@@H]1O[C@H]([C@H](O)c2ccc3c(c2)CC3)[C@@H](O)[C@H]1O [Example 6]", "Symmetric Di-Methyl Arginine (sDMA) marks in Granta-519 cells", "pIC50", 7.42),
    ("Nc1ncnc2c1c(Br)cn2[C@@H]1O[C@H]([C@H](O)c2ccc3c(c2)CC3)[C@@H](O)[C@H]1O [Example 36]", "Symmetric Di-Methyl Arginine (sDMA) marks in Granta-519 cells", "pIC50", 5.42),
    ("O[C@@H]1[C@H](O)[C@@H]([C@H](O)c2ccc3c(c2)CC3)O[C@H]1n1ccc2c(Cl)ncnc21 [Example 56]", "Symmetric Di-Methyl Arginine (sDMA) marks in Granta-519 cells", "pIC50", 6.03),
]

Turning to the following molecule.
Output measured pIC50 for this item: O[C@@H]1[C@H](O)[C@@H]([C@H](O)c2ccc3c(c2)CC3)O[C@H]1n1ccc2c(CF)ncnc21 [Example 49]
6.43
